system: MDA-MB-231 breast; experiment: NCI tumour cell line growth inhibition, 48 h; in the data active = GI50 below about 0.43 µM; inactive = the rest
Labels: active, inactive

[[record]]
compound = "O=C1CC(c2ccc(N3CCOCC3)cc2)(c2ccsc2)NC(=O)C1Sc1ccccc1Cl (configuration not stated)"
discrete_label = "inactive"

[[record]]
compound = "O=c1c2cccc(Cl)c2sc2c(NCCCNCCO)nc3ccccc3c12"
discrete_label = "inactive"

[[record]]
compound = "O=C(Nc1ccccc1O)c1cccc(NC2=C(Cl)C(=O)N(Cc3ccccc3)C2=O)c1"
discrete_label = "inactive"

[[record]]
compound = "O=[N+]([O-])c1ccc(Br)c([N+](=O)[O-])c1"
discrete_label = "inactive"

[[record]]
compound = "COC(=O)Nc1nc2ccc(Oc3ccc(NC(=O)Nc4cccc(C(=O)O)c4)cc3)cc2[nH]1"
discrete_label = "inactive"

[[record]]
compound = "COc1cc(C(=O)c2ccc3c(c2)OCO3)cc(OC)c1OC"
discrete_label = "inactive"

[[record]]
compound = "O=C1NN(c2ccc(C(=O)O)cc2)C(=O)/C1=C\\c1ccc([N+](=O)[O-])o1"
discrete_label = "inactive"

[[record]]
compound = "CC(=O)N1N=C2/C(=C/c3ccccc3)CC(C)CC2C1c1ccccc1 (configuration not stated)"
discrete_label = "inactive"

[[record]]
compound = "CC1=C(C(=O)Nc2ccc(F)c(Cl)c2)C(c2ccccc2Cl)NC(=S)N1 (configuration not stated)"
discrete_label = "inactive"

[[record]]
compound = "CCOc1cccc(/C=N/NC(=O)c2ccc(Nc3ccnc(C(F)(F)F)c3)cc2)c1O"
discrete_label = "inactive"

[[record]]
compound = "Cc1cc2c(cc1Cl)SC1=CC(=O)N(c3ccccc3)C1=NS2(=O)=O"
discrete_label = "inactive"

[[record]]
compound = "CCOc1c(Br)cc(C2C(C(=O)OC)=CN(C)C=C2C(=O)OC)cc1OC"
discrete_label = "inactive"

[[record]]
compound = "COc1cc2nc3sc(C(=O)Nc4ccc(C(=O)OC(C)C)cc4)c(C(=O)Nc4ccc(Cl)cc4C)n3c(=O)c2cc1OC"
discrete_label = "inactive"

[[record]]
compound = "Oc1ccc2cc(Br)ccc2c1-c1c(O)ccc2cc(Br)ccc12"
discrete_label = "inactive"

[[record]]
compound = "O=C(CN1CCN(c2ncnc3ccccc23)CC1)Nc1ccc(Cl)cc1C(=O)c1ccccc1Cl"
discrete_label = "active"

[[record]]
compound = "CCCCCCCCCCCCCC(=O)O[C@H]1CC[C@H](NC(=O)[C@H](OC)[C@H](O)[C@@H](O)[C@H](O)/C=C/C(C)C)C(=O)NC1"
discrete_label = "active"

[[record]]
compound = "CN(C)c1ccc(N2Cc3ccccc3OC3=C2C(=O)c2c(O)ccc(O)c2C3=O)cn1"
discrete_label = "active"

[[record]]
compound = "CCC(C)(C)C(=O)O[C@H]1C[C@@H](C)C=C2C=C[C@H](C)[C@H](CC[C@@H]3C[C@@H](O)CC(=O)O3)[C@H]21"
discrete_label = "active"

[[record]]
compound = "COc1ccc2c(c1)c(-c1ccc(-c3cn(S(=O)(=O)c4ccccc4)c4ccc(OC)cc34)s1)cn2S(=O)(=O)c1ccccc1"
discrete_label = "inactive"

[[record]]
compound = "Cn1ccnc1C(=O)/C=C/c1ccc(C(=O)Nc2ccc(Cl)cc2)cc1"
discrete_label = "inactive"

[[record]]
compound = "C1=Cc2ccccc2Nc2ccccc21"
discrete_label = "inactive"

[[record]]
compound = "Cn1cc(-c2nc(-c3c[nH]c4ncccc34)cs2)c2cc(F)ccc21"
discrete_label = "inactive"

